studySystem: α1β2γ2 GABA receptors (α1β2γ2-CHO-TRex stable cell strain) (Homo sapiens, UniProt P14867+P47870)
Sequence (P14867 28-456): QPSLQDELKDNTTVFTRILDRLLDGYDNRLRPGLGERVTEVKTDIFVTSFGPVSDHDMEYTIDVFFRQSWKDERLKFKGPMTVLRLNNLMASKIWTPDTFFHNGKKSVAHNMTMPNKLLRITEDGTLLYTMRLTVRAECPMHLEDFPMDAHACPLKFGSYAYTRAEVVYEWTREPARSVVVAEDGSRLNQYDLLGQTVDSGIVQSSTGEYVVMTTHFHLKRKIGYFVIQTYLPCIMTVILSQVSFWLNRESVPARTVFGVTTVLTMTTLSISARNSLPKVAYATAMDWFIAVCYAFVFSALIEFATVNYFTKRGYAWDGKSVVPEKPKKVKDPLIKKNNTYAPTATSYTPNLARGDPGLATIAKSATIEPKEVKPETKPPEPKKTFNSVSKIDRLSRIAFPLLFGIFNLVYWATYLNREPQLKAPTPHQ
Sequence (P47870 25-512 limits assumed): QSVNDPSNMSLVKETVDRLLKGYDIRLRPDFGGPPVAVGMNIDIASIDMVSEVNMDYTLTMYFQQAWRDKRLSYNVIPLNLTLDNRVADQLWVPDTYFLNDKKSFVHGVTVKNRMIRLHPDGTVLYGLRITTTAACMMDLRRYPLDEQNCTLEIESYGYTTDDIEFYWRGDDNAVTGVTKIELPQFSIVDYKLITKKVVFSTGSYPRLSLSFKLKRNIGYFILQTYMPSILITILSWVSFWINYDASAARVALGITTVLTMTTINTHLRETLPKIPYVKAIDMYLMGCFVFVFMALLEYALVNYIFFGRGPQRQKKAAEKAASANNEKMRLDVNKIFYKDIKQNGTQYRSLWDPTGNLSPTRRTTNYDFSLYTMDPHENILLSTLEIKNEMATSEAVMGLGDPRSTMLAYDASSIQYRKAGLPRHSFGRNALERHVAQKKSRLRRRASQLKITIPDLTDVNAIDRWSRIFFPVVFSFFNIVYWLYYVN
Sequence (P18507 40-475 partner): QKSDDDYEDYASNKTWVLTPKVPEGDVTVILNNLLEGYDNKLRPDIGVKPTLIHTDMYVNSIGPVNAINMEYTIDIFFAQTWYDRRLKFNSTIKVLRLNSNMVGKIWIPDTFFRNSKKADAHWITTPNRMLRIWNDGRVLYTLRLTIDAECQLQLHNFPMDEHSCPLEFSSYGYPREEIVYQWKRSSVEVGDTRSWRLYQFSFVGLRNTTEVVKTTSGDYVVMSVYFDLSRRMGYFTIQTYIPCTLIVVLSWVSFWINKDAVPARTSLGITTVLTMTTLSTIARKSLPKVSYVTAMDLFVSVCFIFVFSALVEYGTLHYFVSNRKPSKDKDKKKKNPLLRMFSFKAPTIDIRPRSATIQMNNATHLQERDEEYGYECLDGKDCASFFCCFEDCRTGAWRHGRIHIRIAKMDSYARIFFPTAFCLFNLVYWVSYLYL
methodNotes: Whole-cell patch clamp, intrasynaptic functional activity (positive allosteric regulation of GABA-induced current)
conditionLabel: patch clamp -60 mV, GABA at EC10-20, α1β2γ2-CHO-TRex cells
Listed here: items and their measured EC50.
Response body: numeric value in nM, unit text excluded.

Observe how each entry below is paired with its result.
INSERT INTO assay_data (compoundstructure, readouttype, result) VALUES
  ('C[C@@]1(O)CC[C@H]2[C@H](CC[C@@H]3[C@@H]2CC[C@]2(C)[C@@H](C(=O)Cn4cnn(-c5ccnc(F)c5)c4=O)CC[C@@H]32)C1', 'EC50', 153),
  ('C[C@@]1(O)CC[C@H]2[C@H](CC[C@@H]3[C@@H]2CC[C@]2(C)[C@@H](C(=O)Cn4cnn(-c5ccc(F)cc5F)c4=O)CC[C@@H]32)C1', 'EC50', 784),
  ('C[C@@]1(O)CC[C@H]2[C@H](CC[C@@H]3[C@@H]2CC[C@]2(C)[C@@H](C(=O)Cn4ncn(-c5ccc(F)cc5)c4=O)CC[C@@H]32)C1', 'EC50', 12.4),
  ('C[C@@]1(O)CC[C@H]2[C@H](CC[C@@H]3[C@@H]2CC[C@]2(C)[C@@H](C(=O)Cn4cnn(-c5cc(F)nc(F)c5)c4=O)CC[C@@H]32)C1', 'EC50', 145),
  ('C[C@@]1(O)CC[C@H]2[C@H](CC[C@@H]3[C@@H]2CC[C@]2(C)[C@@H](C(=O)Cn4cnn(-c5cccc(F)c5F)c4=O)CC[C@@H]32)C1', 'EC50', 126);

Shifting focus to the compound that follows.
The value of EC50 measured for the compound C[C@@]1(O)CC[C@H]2[C@H](CC[C@@H]3[C@@H]2CC[C@]2(C)[C@@H](C(=O)Cn4cnn(-c5cccc(F)c5)c4=O)CC[C@@H]32)C1 turned out to be 56
